# Test system: Murine Leukemia 1210/DDP
# PROTOCOL TEXT: In vivo antitumor activity against murine leukemia L1210/DDP (Example 3, Table 7)
# Set-up: species or system BDF1 mice
# EXPERIMENTAL SETUP: L1210/DDP i.p., BDF1 mice; drug i.p. days 1, 5, 9

COMPOUND | TEST TARGET | UNIT STRING | MTD (Maximum Tolerated Dose)
N[C@@H]1CCCC[C@H]1N.[Cl][Pt+2]([Cl])([Cl])[Cl] [Tetraplatin, reference compound] | Murine Leukemia 1210/DDP | mg/kg/injection | 3.1
NC1CCC(N)CC1.O=C1[O][Pt][O]C(=O)C1O | Murine Leukemia 1210/DDP | mg/kg/injection | 50
NC1CCC(N)CC1.[Cl][Pt]([Cl])([Cl])[Cl] (stereo not shown) | Murine Leukemia 1210/DDP | mg/kg/injection | 3.1
N.N.[Cl][Pt][Cl] [Cis-platin, cis-diaminedichloroplatinum(II), reference compound] | Murine Leukemia 1210/DDP | mg/kg/injection | 5.0
